This listing pairs binders with measured MFI ratio over secondary antibody.
- system: T1, Full length mouse CD98hc on CHO cells (mouse, UniProt P10852 1-526)
- T1 construct: CHO cells stably overexpressing it; also called CHO-mouse CD98hc; CHO-mCD98hc
- T1 sequence: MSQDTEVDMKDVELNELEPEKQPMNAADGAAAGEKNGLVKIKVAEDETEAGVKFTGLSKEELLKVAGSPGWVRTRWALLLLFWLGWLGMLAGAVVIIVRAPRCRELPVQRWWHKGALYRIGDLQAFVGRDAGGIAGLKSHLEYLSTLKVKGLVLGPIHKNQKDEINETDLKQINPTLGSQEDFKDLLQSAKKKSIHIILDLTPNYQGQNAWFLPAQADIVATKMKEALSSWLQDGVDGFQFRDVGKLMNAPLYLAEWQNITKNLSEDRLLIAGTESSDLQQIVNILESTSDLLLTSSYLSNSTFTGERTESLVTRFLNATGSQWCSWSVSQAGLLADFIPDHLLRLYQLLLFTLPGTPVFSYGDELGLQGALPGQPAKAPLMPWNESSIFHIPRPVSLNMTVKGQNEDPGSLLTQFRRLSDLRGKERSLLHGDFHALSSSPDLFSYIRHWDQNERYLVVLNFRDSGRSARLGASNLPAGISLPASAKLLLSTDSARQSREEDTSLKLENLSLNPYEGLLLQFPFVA
- experimentalProtocol: FACS, hybridoma supernatant
Reply with the value as a number alone.

The examples below pair each entry with its known result.
# binder, measuredValue
data = [
    ("CD98HC.04.047 (antibody, V domains shown, hybridoma IgG) VH: EVQLQESGPSLVKPSQTLSLTCSVTGDSITSGYWNWIRKFPGNKLEYMGYISYSGSTYYNPSLKGRVSITRDTSKNQYYLQLNSVTTEDTATYYCQRHVIYDYTWFAYWGQGTLVTVSA VL: QIVLTQSPAIMSASPGEKVTISCSASSSVGYMYWLQQKPGSSPKPWIYRTSILASGVPARFSGSGSGTSYSLTISSMEAEDAATYYCQQYQSYPLTFGAGTKLELK", 1.2),
    ("CD98HC.04.013 (antibody, V domains shown, hybridoma IgG) VH: EVQLVESGGDLGMPGGSLKLSCAASGFALSGYDMSWVRQTPDKRLEWVAYLSSGGGSTYYPYTVKGRFTISRDNAQNTLYLQMSSLKSEDTAIYYCARHSEVRPWFGYWGQGTLVTVSA VL: DIVMSQSPSSLAVSVGEKVTLTCKSSQSLLYSGNQKNYLAWYQQNPGQSPKLLIYWASTRESGVPDRFTGSGSGTDFTLTISSVKAEDLAVYYCQQYYTYPPTFGAGTKLGLK", 1.1),
    ("CD98HC.04.058 (antibody, V domains shown, hybridoma IgG) VH: QVQLQQSGAELVRPGVSVKISCKASGYTFTDHTMHWVKQSHARSLEWIGVISTYFGDASYNPKFKGKATMTVDKSSNTAYMELARLTSEDSAIYYCARVGGRLRLGYYFDYWGQGTTLTVSS VL: NIMMTQSPSSLAVSAGEKVTMNCKSSQTVLYSSNQKNYLAWYQQKPGQSPKLLIYWASTRESGVPDRFTGSGSGTDFTLTISSVQVEDLAVYYCHQYLSSYTFGGGTKLEIK", 1.2),
    ("CD98HC.03.002 (antibody, V domains shown, hybridoma IgG) VH: DVQLVESGGGLVQPGGSRKLSCAASGFTFSTFGMHWVRQAPEKGLEWVAYISGGSTNIYYADTVKGRFTISRDNPKNTLFLQMTSLRSEDTAMYYCARETTLLATNFDYWGQGTTLTVSS VL: DIQMTQTTSSLSASLGDRVTISCRASQDISNYLNWYQQKPDGTVKLLIYYTSRLHSGVPSRFSGSGSGTDYSLTISNLEQEDIATYFCQQGSTLPRTFGGGTKLEIK", 1),
    ("CD98HC.04.009 (antibody, V domains shown, hybridoma IgG) VH: QVQLKESGPGLVAPSQSLSITCTVSGFSLTSYGVHWVRQPPGKGLEWLGVIWAGGSTYYNSALMSRLSISKDNAKSQVLLKMSSLQTDDTAMYYCARDNYGGVYLDVWGAGTTVTVSS VL: ENVLTQSPASMSASPGEKVTMTCRASSSVSSSYLHWYQQKSGASPKLWIYSTSNLASGVPARFSGSGSGTSYSLTISSVEAEDAATYYCQQYSGYPLTFGSGTKLEIK", 1.1),
]

Looking up CD98HC.04.012 (antibody, V domains shown, hybridoma IgG) VH: QVQLQQSGADLVRPGDSVKISCKGSGYTFTDNTLHWVKQSHAKSLEWIGVISPYYGDASYNQKFKGKATMTVDKSSSTAYMELARLTSEDSAIYYCARVGGRLRLGYYFDHWGQGTTLTVSS VL: NIMMTQSPSSLAVSAGEKVTMNCKSSQSVLSSSNQKNYLAWYQQKPGQSPKLLIYWASTRESGVPARFTGSGSGTDFSLTITSVQAEDLAVYYCLQYLSSYTFGGGTKLEIK , I found its MFI ratio over secondary antibody recorded as 1.1

Looking up CD98HC.04.022 (antibody, V domains shown, hybridoma IgG) VH: EVQLQQSGAELVKPGASVKLSCTASGFNIKDTFMHWMKQRPEQGLEWIGRIDPANANTRYDPKFQGKATITTDTSSNTAYLQLSSLTSEDTAVYYCARDVYYDVWGAGTTVTVSS VL: DILMTQSPSSMSVSLGDTVTITCHASQGISSNIGWLQQKPGRSFKGLIYHGSNLEDGVPSRFTGSGSGTDYSLTISGLESEDFADYYCVQYAQFPRTFGGGTKLEIQ , I found its MFI ratio over secondary antibody recorded as 1.1

Looking up CD98HC.04.006 (antibody, V domains shown, hybridoma IgG) VH: EVNLVESGGDLVQPGGSLRLSCATSGFTFTDYFMSWVRQPPGKALEWLGFIRNKAYGYTTEYSASVKGRFTISRDNSQSIFYLQMNTLRLEDSATYYCARGPFISTAPFAYWGQGTLVTVSA VL: DIVMSQSPSSLAVSVGETVTMSCKSSQSLLYSSNQKNYLAWYQQKPGQSPKLLIYWGSTRESGVPDRFTGSGSGTDFTLTISSVKAEDLAVYYCQHYYGYPWTFGGGTKLEIK , I found its MFI ratio over secondary antibody recorded as 1.1

Looking up CD98HC.04.003 (antibody, V domains shown, hybridoma IgG) VH: QVQLQQSGAELAKPGASLKMSCKASGYTFTDYYIHWVKQRPGQDLEWIGYINPNSAYTDSNQKFKDKATLTADKSSNTAYMQLSSLTSEDSAVYYCARKGHFYAPSFAYWGQGTLVTVSA VL: DIQMTQTTSSLSASLGDRVTISCRASQDISNYLNWYQQKPDGTVKLLIYYTSRLHSGVPSRFSGSGSGADYSLTISNLQQEDIATYFCQQGDTLPYTFGGGTKLEIE , I found its MFI ratio over secondary antibody recorded as 1.1

Looking up CD98HC.04.018 (antibody, V domains shown, hybridoma IgG) VH: QIQLVQSGPELKKPGETVKISCKASGYTFRNYGMNWVKQAPGKGLKWMGWINTYTGEPTYAEDFKGRFAFSLETSASTAYLQINKLKNEDEATYFCARGEAHWYFDVWGAGTTVTVSS VL: QIVLTQSPAIMSASLGERVTMTCTASSSVSSSYLYWYQQKPGSSPKLWIYSIFNLASGVPARFSGSGSGTSYSLTISSMEAEDAATYYCHQYHRSPPTFGGGTKLEIK , I found its MFI ratio over secondary antibody recorded as 1.1
